Entry source: ChEMBL document CHEMBL1201862

- Test system: DU-145
- protocol summary: NCI tumour cell line growth inhibition, 48 h
Calls of active or inactive are those of the source. Rule as the data show it: active = GI50 up to about 1.1 µM and inactive = higher.
Output constraint: value belongs to active, inactive

query: I would be grateful if you could indicate the recorded call for O=C1C=CC[C@H](/C=C/C[C@@H](O)C[C@H](O)/C=C/c2ccccc2)O1 .
result: inactive

query: I would be grateful if you could indicate the recorded call for Cc1ccc([N+](=O)[O-])cc1S(=O)(=O)Nc1ccc(C2=NOC(c3ccccc3)C2)cc1 (centres undefined) .
result: inactive

query: I would be grateful if you could indicate the recorded call for CN(C)CCNc1ccc2c(=O)n(CCN(C)C)c(=O)n3c4ccccc4c(=O)c1c23 .
result: active

query: I would be grateful if you could indicate the recorded call for CC(C)(C)c1ccc2c(c1)OCc1n[nH]c(n1)COc1cc(C(C)(C)C)ccc1OCCOCCO2 .
result: inactive

query: I would be grateful if you could indicate the recorded call for CCOC(=O)C(=[N+]=[N-])C(=O)CSC#N .
result: inactive

query: I would be grateful if you could indicate the recorded call for COC(=O)C1=NN2c3ccccc3CN([C@@H](C)c3ccccc3)C(=O)[C@H]2[C@@H]1C .
result: inactive

query: I would be grateful if you could indicate the recorded call for CC(C)c1c(O)ccc2c1CCC1C(C)(C)CCCC21C (centres undefined) .
result: inactive

query: I would be grateful if you could indicate the recorded call for CC(=O)OCC1OC(N2C(C)=C(C(C)=O)C(c3ccc(Cl)cc3)C(C#N)=C2S)C(OC(C)=O)C(OC(C)=O)C1OC(C)=O (centres undefined) .
result: inactive

query: I would be grateful if you could indicate the recorded call for COc1cc([C@H]2OC[C@H]3[C@@H]2CO[C@@H]3c2cc(OC)c3c(c2)OCO3)cc(OC)c1OC .
result: inactive

* * *

- Test system: Hs-578T
- protocol summary: NCI tumour cell line growth inhibition, 48 h
Active and inactive are the calls of the source. Rule as the data show it: active = GI50 up to about 1.1 µM and inactive = higher. *1 amine or outer side, *2 acyl side, *3 side chain or, on linkers, in order; H or OH if unused. Where a SMILES comes first, the peptide text is derived from it. Residues, ends and D or L forms follow the SMILES beside them. [ ]: non-standard residue; d: D form. The star is where a group is joined. ξ: configuration not given here. *: point of attachment. X26 = O=C([C@H]1CCC[C@H]1N[*:1])[*:2]; ξW = NC(Cc1c[nH]c2ccccc12)C(=O)O; ξF = NC(Cc1ccccc1)C(=O)O; Boc = CC(C)(C)OC(=O)*; ξK = NCCCCC(N)C(=O)O; ξT = CC(O)C(N)C(=O)O; Bz = O=C(c1ccccc1)*; tBu = CC(C)(C)*
Output constraint: value belongs to 1 (active), 0 (inactive)

query: I would be grateful if you could indicate the recorded call for CC(NC(=O)C(Cc1ccc(OC(=O)c2ccccc2)cc1)NC(=O)OC(C)(C)C)C(=O)NC(Cc1ccccc1)C(=O)NCC(N)=O (stereo unspecified) (Boc-Y(Bz)AFG-NH2; configuration not given here) .
result: 0

query: I would be grateful if you could indicate the recorded call for Cc1c(C#N)c2nnn(-c3ccc(Cl)cc3)c(=O)n2c1-c1ccccc1 .
result: 1

query: I would be grateful if you could indicate the recorded call for CCC1CN(C(=O)c2ccccc2)C(Cc2c[nH]c3ccccc23)C(=O)C1CC(=O)OC (stereo unspecified) .
result: 0

query: I would be grateful if you could indicate the recorded call for C1CN(c2nc3c(nnc4nc(N5CCOCC5)sc43)s2)CCO1 .
result: 0

query: I would be grateful if you could indicate the recorded call for O=S(=O)(O)c1ccc(Nc2ccnc3ccccc23)cc1 .
result: 0

query: I would be grateful if you could indicate the recorded call for CC(C)C1OC(=O)C=C1Sc1ccccc1 (stereo unspecified) .
result: 0

query: I would be grateful if you could indicate the recorded call for NCCC1CN(C(=O)OCc2ccccc2)c2ccccc21 (stereo unspecified) .
result: 0

query: I would be grateful if you could indicate the recorded call for CC(=O)OCc1nc(C#N)c(N)o1 .
result: 0

query: I would be grateful if you could indicate the recorded call for COC1/C=C/O[C@@]2(C)Oc3c(C)c(O)c4c(O)c(cc(O)c4c3C2=O)NC(=O)/C(C)=C\C=C\[C@H](C)C(O)[C@@H](C)[C@@H](O)[C@@H](C)[C@H](OC(C)=O)[C@@H]1C (stereo partly specified) .
result: 0

query: I would be grateful if you could indicate the recorded call for CC(C)OP(=O)(CCCCCCCCC/C=C/c1ccc2c(c1)OCCOCCOCCOCCO2)OC(C)C .
result: 0

query: I would be grateful if you could indicate the recorded call for Cn1c2ccccc2n2c(=O)c(-c3ccc(O)cc3)nnc12 .
result: 0

query: I would be grateful if you could indicate the recorded call for c1ccc2c3c([nH]c2c1)C1c2[nH]c4ccccc4c2CCN1CC3 .
result: 0

query: I would be grateful if you could indicate the recorded call for c1cc2nnc1SCCSCCSCCSc1ccc(nn1)SCCSCCSCCS2 .
result: 0

query: I would be grateful if you could indicate the recorded call for O=C(/C=C/c1csc(-c2ccccc2)n1)NCc1ccc(C(=O)NCc2ccccc2)cc1 .
result: 0

query: I would be grateful if you could indicate the recorded call for O=C1NN=C(O)C2C3c4ccccc4C(c4ccccc43)C12 (stereo unspecified) .
result: 0

query: I would be grateful if you could indicate the recorded call for Oc1c(O)c(Cc2ccccc2)c(Cc2ccccc2)c(Cc2ccccc2)c1Cc1ccccc1 .
result: 0

query: I would be grateful if you could indicate the recorded call for O=C1CC(CC(O)[C@@H]2CCCC[C@@H]2O)CC(=O)N1c1ccccc1 (stereo partly specified) .
result: 0

query: I would be grateful if you could indicate the recorded call for CC(OC(C)(C)C)C1NC(=O)C(CCCCNC(=O)OC(C)(C)C)NC(=O)C(Cc2c[nH]c3ccccc23)NC(=O)C(Cc2ccccc2)NC(=O)[C@H]2CCC[C@H]2NC(=O)C(Cc2ccccc2)NC1=O (stereo partly specified) (cyclo([X26][ξF][ξW][ξK](Boc)[ξT](tBu)[ξF])) .
result: 0

query: I would be grateful if you could indicate the recorded call for Cc1nn(C(=O)Cc2ccccc2)c2c1C(c1ccc3ccccc3c1O)SC(=N)N2 (stereo unspecified) .
result: 0

query: I would be grateful if you could indicate the recorded call for N#CCc1nc(Cc2ccccc2)n[nH]1 .
result: 0

query: I would be grateful if you could indicate the recorded call for COc1ccc2c(c1)CC[C@@H]1[C@@H]2CC[C@]2(C)/C(=N/OCCN3CCCC3)CC[C@@H]12 .
result: 0

query: I would be grateful if you could indicate the recorded call for COc1ccc(OC)c(CCc2cc(OC)ccc2OC)c1 .
result: 0

query: I would be grateful if you could indicate the recorded call for CC(C)c1c(O)ccc2c1CCC1C(C)(C)CCCC21C (stereo unspecified) .
result: 0

query: I would be grateful if you could indicate the recorded call for ClCC[N+]12CC[N+](CCCl)(CC1)C2 .
result: 0

query: I would be grateful if you could indicate the recorded call for OCC(O)C(O)C(C=NNc1ncnc2ccc(Br)cc12)=NNc1ncnc2ccc(Br)cc12 (stereo unspecified) .
result: 0

query: I would be grateful if you could indicate the recorded call for S=C1SSC2N=CC=CC12 (stereo unspecified) .
result: 0

query: I would be grateful if you could indicate the recorded call for COC(=O)C(Cc1ccc(OC)cc1O)NC(=O)OC(C)(C)C (stereo unspecified) .
result: 0

query: I would be grateful if you could indicate the recorded call for COc1ccc(OC)c(C2CCc3nc4nc(N)nc(N)c4cc3C2)c1 (stereo unspecified) .
result: 0

query: I would be grateful if you could indicate the recorded call for O=C1c2ccccc2C(=O)c2c(Nc3cc4c5c(ccc6c7ccc8c9c(cc(Nc%10cccc%11c%10C(=O)c%10ccccc%10C%11=O)c(c3c56)c97)-c3ccccc3C8=O)C(=O)c3ccccc3-4)cccc21 .
result: 0

query: I would be grateful if you could indicate the recorded call for Nc1ccc(Cn2ccc3c4c(N)nc(N)nc4ccc32)cc1 .
result: 0

query: I would be grateful if you could indicate the recorded call for COC(=O)C1=NN2c3ccccc3CN([C@@H](C)c3ccccc3)C(=O)[C@H]2[C@@H]1C .
result: 0

query: I would be grateful if you could indicate the recorded call for CCOC(=O)C1=C(O)C2C3CC4C2C(O)=C(C(=O)OCC)C2C1C3C42 (stereo unspecified) .
result: 0

query: I would be grateful if you could indicate the recorded call for COc1ccc2c(c1)C=C([N+](=O)[O-])C(C1OC(C)(C)OC1C1COC(C)(C)O1)O2 (stereo unspecified) .
result: 0

query: I would be grateful if you could indicate the recorded call for CCC[N+](C)(C)CCCNC(=O)c1c(O)c2ccccc2[nH]c1=O .
result: 0

query: I would be grateful if you could indicate the recorded call for COc1ccc(-c2oc3cc(OC)ccc3c(=O)c2O)cc1 .
result: 0

query: I would be grateful if you could indicate the recorded call for CCOC(=O)c1c(SC(=O)c2cc(OC)c(OC)c(OC)c2)n(-c2ccccc2)c(=S)n(-c2ccccc2)c1=O .
result: 0
